assay: Cytotoxicity against human HPLF cells; type: cell-based
Entries and their CC50 values follow.
Report as a plain number; the unit µM is understood.

// worked examples, CC50 included
CC[N+](C)(CC)CCOc1ccc(C(=O)N2C/C(=C\c3ccc([N+](=O)[O-])cc3)C(=O)/C(=C/c3ccc([N+](=O)[O-])cc3)C2)cc1.[I-] : 13
Cl.O=C1/C(=C/c2ccc([N+](=O)[O-])cc2)CN(C(=O)c2ccc(OCCN3CCOCC3)cc2)C/C1=C\c1ccc([N+](=O)[O-])cc1 : 9.3
CC[N+](C)(CC)CCOc1ccc(C(=O)N2C/C(=C\c3ccc(Cl)cc3)C(=O)/C(=C/c3ccc(Cl)cc3)C2)cc1.[I-] : 9.4
CC[N+](C)(CC)CCOc1ccc(C(=O)N2C/C(=C\c3ccc(C)cc3)C(=O)/C(=C/c3ccc(C)cc3)C2)cc1.[I-] : 8.3
Cl.O=C1/C(=C/c2ccccc2)CN(C(=O)c2ccc(OCCN3CCOCC3)cc2)C/C1=C\c1ccccc1 : 30

Shifting focus to the compound that follows.
What value of CC50 has been reported for the following compound? CCN(CC)CCOc1ccc(C(=O)N2C/C(=C\c3ccc([N+](=O)[O-])cc3)C(=O)/C(=C/c3ccc([N+](=O)[O-])cc3)C2)cc1.Cl
5.9

###

test system: HT-29; assay: Cytotoxicity against human HT-29 cells after 96 hrs by MTT assay; format: functional, cell-based; settings: HT-29, 96 h
readout name: IC50

What value of IC50 has been reported for the following compound? Cl.O=C1/C(=C/c2ccccc2)CN(C(=O)c2ccc(OCCN3CCOCC3)cc2)C/C1=C\c1ccccc1
3.75 µM

###

experiment: Cytotoxicity against human HPLF cells; type: cell-based
readout name: log10 of CC50 (log10 of the value in µM)
A value of 2 here means CC50 of 100 in µM, since values are log10.

// worked examples, log10 of CC50 included
CN(C)CCOc1ccc(C(=O)N2C/C(=C\c3ccc(Cl)cc3)C(=O)/C(=C/c3ccc(Cl)cc3)C2)cc1.Cl : 0.63
CCN(CC)CCOc1ccc(C(=O)N2C/C(=C\c3ccccc3)C(=O)/C(=C/c3ccccc3)C2)cc1.Cl : 0.78
Cl.O=C1/C(=C/c2ccc(Cl)cc2)CN(C(=O)c2ccc(OCCN3CCOCC3)cc2)C/C1=C\c1ccc(Cl)cc1 : 2.56
Cl.O=C1/C(=C/c2ccccc2)CN(C(=O)c2ccc(OCCN3CCCCC3)cc2)C/C1=C\c1ccccc1 : 0.87
CC[N+](C)(CC)CCOc1ccc(C(=O)N2C/C(=C\c3ccccc3)C(=O)/C(=C/c3ccccc3)C2)cc1.[I-] : 1.90
Cc1ccc(/C=C2\CN(C(=O)c3ccc(OCCN4CCCCC4)cc3)C/C(=C\c3ccc(C)cc3)C2=O)cc1.Cl : 0.74

Shifting focus to the molecule that follows.
What value of log10 of CC50 has been reported for the following molecule? Cl.O=C1/C(=C/c2ccc(Cl)cc2)CN(C(=O)c2ccc(OCCN3CCCCC3)cc2)C/C1=C\c1ccc(Cl)cc1
2.53

###

system: HSC-4; assay: Selectivity index, ratio of CC50 for human normal cells to CC50 for human HSC4 cells; assay type: functional
readout name: Selectivity Index
Please give the numeric answer without any surrounding text.

// worked examples, Selectivity Index included
CCN(CC)CCOc1ccc(C(=O)N2C/C(=C\c3ccc([N+](=O)[O-])cc3)C(=O)/C(=C/c3ccc([N+](=O)[O-])cc3)C2)cc1.Cl : 4.6
CCN(CC)CCOc1ccc(C(=O)N2C/C(=C\c3ccc(C)cc3)C(=O)/C(=C/c3ccc(C)cc3)C2)cc1.Cl : 2.5
Cl.O=C1/C(=C/c2ccc([N+](=O)[O-])cc2)CN(C(=O)c2ccc(OCCN3CCOCC3)cc2)C/C1=C\c1ccc([N+](=O)[O-])cc1 : 13

What value of Selectivity Index has been reported for the following compound? CC[N+](C)(CC)CCOc1ccc(C(=O)N2C/C(=C\c3ccc([N+](=O)[O-])cc3)C(=O)/C(=C/c3ccc([N+](=O)[O-])cc3)C2)cc1.[I-]
1.3

What value of Selectivity Index has been reported for the following compound? CN(C)CCOc1ccc(C(=O)N2C/C(=C\c3ccc([N+](=O)[O-])cc3)C(=O)/C(=C/c3ccc([N+](=O)[O-])cc3)C2)cc1.Cl
8.5

What value of Selectivity Index has been reported for the following compound? Cc1ccc(/C=C2\CN(C(=O)c3ccc(OCCN4CCOCC4)cc3)C/C(=C\c3ccc(C)cc3)C2=O)cc1.Cl
12

###

test: Cytotoxicity against human HPC cells; format: cell-based
readout name: CC50

What value of CC50 has been reported for the following compound? CCN(CC)CCOc1ccc(C(=O)N2C/C(=C\c3ccc([N+](=O)[O-])cc3)C(=O)/C(=C/c3ccc([N+](=O)[O-])cc3)C2)cc1.Cl
4.5 µM

###

Entries and their CC50 values follow.
assay: Cytotoxicity against human HGF cells; assay type: cell-based
Report as a plain number; the unit µM is understood.

// worked examples, CC50 included
CC[N+](C)(CC)CCOc1ccc(C(=O)N2C/C(=C\c3ccccc3)C(=O)/C(=C/c3ccccc3)C2)cc1.[I-] : 160
CC[N+](C)(CC)CCOc1ccc(C(=O)N2C/C(=C\c3ccc(C)cc3)C(=O)/C(=C/c3ccc(C)cc3)C2)cc1.[I-] : 34
Cl.O=C1/C(=C/c2ccc(Cl)cc2)CN(C(=O)c2ccc(OCCN3CCOCC3)cc2)C/C1=C\c1ccc(Cl)cc1 : 400
CN(C)CCOc1ccc(C(=O)N2C/C(=C\c3ccc([N+](=O)[O-])cc3)C(=O)/C(=C/c3ccc([N+](=O)[O-])cc3)C2)cc1.Cl : 7
Cc1ccc(/C=C2\CN(C(=O)c3ccc(OCCN(C)C)cc3)C/C(=C\c3ccc(C)cc3)C2=O)cc1.Cl : 7.9
Cl.O=C1/C(=C/c2ccccc2)CN(C(=O)c2ccc(OCCN3CCCCC3)cc2)C/C1=C\c1ccccc1 : 4.6

What value of CC50 has been reported for the following compound? CCN(CC)CCOc1ccc(C(=O)N2C/C(=C\c3ccc(C)cc3)C(=O)/C(=C/c3ccc(C)cc3)C2)cc1.Cl
3.6

What value of CC50 has been reported for the following compound? Cc1ccc(/C=C2\CN(C(=O)c3ccc(OCCN4CCOCC4)cc3)C/C(=C\c3ccc(C)cc3)C2=O)cc1.Cl
10

What value of CC50 has been reported for the following compound? Cl.O=C1/C(=C/c2ccccc2)CN(C(=O)c2ccc(OCCN3CCOCC3)cc2)C/C1=C\c1ccccc1
83

###

test: Cytotoxicity against human HPLF cells; assay type: cell-based
// NB: equality with 6 µM counts as N; only CC50 strictly below is Y

Answered cases to consult:
Cl.O=C1/C(=C/c2ccc([N+](=O)[O-])cc2)CN(C(=O)c2ccc(OCCN3CCCCC3)cc2)C/C1=C\c1ccc([N+](=O)[O-])cc1 : Y
Cc1ccc(/C=C2\CN(C(=O)c3ccc(OCCN(C)C)cc3)C/C(=C\c3ccc(C)cc3)C2=O)cc1.Cl : Y
CN(C)CCOc1ccc(C(=O)N2C/C(=C\c3ccccc3)C(=O)/C(=C/c3ccccc3)C2)cc1.Cl : N
CCN(CC)CCOc1ccc(C(=O)N2C/C(=C\c3ccc(C)cc3)C(=O)/C(=C/c3ccc(C)cc3)C2)cc1.Cl : Y

Find out if reported CC50 for Cc1ccc(/C=C2\CN(C(=O)c3ccc(OCCN4CCOCC4)cc3)C/C(=C\c3ccc(C)cc3)C2=O)cc1.Cl is less than 6 µM
N

###

test system: HSC-4; assay: Selectivity index, ratio of CC50 for human normal cells to CC50 for human HSC4 cells; format: functional
readout name: Selectivity Index

What value of Selectivity Index has been reported for the following compound? CC[N+](C)(CC)CCOc1ccc(C(=O)N2C/C(=C\c3ccccc3)C(=O)/C(=C/c3ccccc3)C2)cc1.[I-]
1.7

What value of Selectivity Index has been reported for the following compound? Cl.O=C1/C(=C/c2ccccc2)CN(C(=O)c2ccc(OCCN3CCOCC3)cc2)C/C1=C\c1ccccc1
29

What value of Selectivity Index has been reported for the following compound? CC[N+](C)(CC)CCOc1ccc(C(=O)N2C/C(=C\c3ccc(C)cc3)C(=O)/C(=C/c3ccc(C)cc3)C2)cc1.[I-]
1.4

###

tested on: HL-60; test: Cytotoxicity against human HL60 cells; format: functional
// NB: equality with 1000 nM counts as rule not met; only CC50 strictly below is rule met

CC[N+](C)(CC)CCOc1ccc(C(=O)N2C/C(=C\c3ccc([N+](=O)[O-])cc3)C(=O)/C(=C/c3ccc([N+](=O)[O-])cc3)C2)cc1.[I-] : rule not met
CN(C)CCOc1ccc(C(=O)N2C/C(=C\c3ccc(Cl)cc3)C(=O)/C(=C/c3ccc(Cl)cc3)C2)cc1.Cl : rule not met
CC[N+](C)(CC)CCOc1ccc(C(=O)N2C/C(=C\c3ccc(C)cc3)C(=O)/C(=C/c3ccc(C)cc3)C2)cc1.[I-] : rule not met
Cl.O=C1/C(=C/c2ccc(Cl)cc2)CN(C(=O)c2ccc(OCCN3CCOCC3)cc2)C/C1=C\c1ccc(Cl)cc1 : rule not met
Cl.O=C1/C(=C/c2ccccc2)CN(C(=O)c2ccc(OCCN3CCCCC3)cc2)C/C1=C\c1ccccc1 : rule not met

Find out if reported CC50 for Cc1ccc(/C=C2\CN(C(=O)c3ccc(OCCN(C)C)cc3)C/C(=C\c3ccc(C)cc3)C2=O)cc1.Cl is less than 1000 nM
rule met

Find out if reported CC50 for Cc1ccc(/C=C2\CN(C(=O)c3ccc(OCCN4CCOCC4)cc3)C/C(=C\c3ccc(C)cc3)C2=O)cc1.Cl is less than 1000 nM
rule not met
